Source of measurements: patent US9096841B2

- Tested on: D-hydantoinase (Sigma)
- Test description: Substrate specificity of Vigna angularis hydantoinase
- Assay type: biochemical
- Condition summary: Tris buffer pH 7.5, 0.1 M; D-hydantoinase 7 g/L; substrate 5 mM
Property label: Relative rate of enzymatic hydrolysis
Enter the number alone.

Form field Relative rate of enzymatic hydrolysis, entry O=C1CC(c2ccccc2)NC(=O)N1 (racemic) [Substrate 4a, (±)-6-phenyldihydrouracil] : 7

GET /value?item= O=C1CC(c2ccc(F)cc2)NC(=O)N1 (stereo not drawn) [Substrate 4b, 6-(4-fluoro-phenyl)-dihydrouracil] &field=Relative rate of enzymatic hydrolysis returns 15

Field Relative rate of enzymatic hydrolysis (entry O=C1CC(c2ccc(Cl)cc2)NC(=O)N1 (stereo not drawn) [Substrate 4c, 6-(4-chloro-phenyl)-dihydrouracil] ) reads 41

Relative rate of enzymatic hydrolysis reading for CC1CC(=O)NC(=O)N1 (stereo not drawn) [Substrate 4h, 6-methyldihydrouracil] : 52

Record CC1CNC(=O)NC1=O (stereo not drawn) [Substrate 8, 5-methyldihydrouracil] . Reported Relative rate of enzymatic hydrolysis: 23

Query O=C1CCNC(=O)N1 [Substrate 4e, dihydrouracil] yields Relative rate of enzymatic hydrolysis of 100

###

- Test system: D-hydantoinase (Sigma)
- Test description: Substrate specificity of Vigna angularis hydantoinase
- Type: biochemical
- Condition summary: Tris buffer pH 7.5, 0.1 M; D-hydantoinase 7 g/L; substrate 5 mM
Property label: E value

Record O=C1CC(c2ccc(F)cc2)NC(=O)N1 (stereo not shown) [Substrate 4b, 6-(4-fluoro-phenyl)-dihydrouracil] , field E value: >100

compound O=C1CC(c2ccc(Cl)cc2)NC(=O)N1 (stereo not shown) [Substrate 4c, 6-(4-chloro-phenyl)-dihydrouracil] , E value observed: >100

Lab note: CC1CC(=O)NC(=O)N1 (stereo not shown) [Substrate 4h, 6-methyldihydrouracil] gave E value of 5

Data point: O=C1CC(c2ccccc2)NC(=O)N1 (racemic) [Substrate 4a, (±)-6-phenyldihydrouracil] ; E value = >200
